As shown below, each of these compounds has a reported log10 of Ki value.
- Target or system: Substance-P receptor (Homo sapiens)
- Sequence (P25103 whole entry): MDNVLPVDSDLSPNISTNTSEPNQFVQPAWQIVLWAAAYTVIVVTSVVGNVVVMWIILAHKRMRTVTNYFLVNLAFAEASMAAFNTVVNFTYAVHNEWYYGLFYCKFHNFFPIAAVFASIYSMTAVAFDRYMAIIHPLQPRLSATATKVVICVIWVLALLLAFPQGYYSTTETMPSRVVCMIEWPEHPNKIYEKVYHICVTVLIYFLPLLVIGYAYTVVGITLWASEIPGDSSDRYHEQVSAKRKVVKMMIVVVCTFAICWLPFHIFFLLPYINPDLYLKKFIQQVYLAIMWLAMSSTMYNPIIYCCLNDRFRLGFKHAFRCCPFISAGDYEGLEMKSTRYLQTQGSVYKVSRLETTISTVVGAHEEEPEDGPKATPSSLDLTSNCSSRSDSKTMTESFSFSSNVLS
In plain terms, each number is the log10 of measured Ki in nM.

Guide cases for log10 of Ki, answers given:
[[record]]
smiles_repr = "Cc1cc(O)cc(C)c1C[C@H](N)C(=O)N[C@H](CCCNC(N)=O)C(=O)N[C@H]1Cc2ccccc2CN(CCC(=O)N(C)Cc2cc(C(F)(F)F)cc(C(F)(F)F)c2)C1=O"
observation_type = "log10 of Ki"
measured_number = 1.54

[[record]]
smiles_repr = "Cc1cc(O)cc(C)c1C[C@H](N)C(=O)N[C@H](CCCNC(=N)N)C(=O)N[C@H]1Cc2ccccc2CN(CCC(=O)N(Cc2cc(C(F)(F)F)cc(C(F)(F)F)c2)CC(C)C)C1=O"
observation_type = "log10 of Ki"
measured_number = 2.87

[[record]]
smiles_repr = "Cc1cc(O)cc(C)c1C[C@H](N)C(=O)N[C@H](CCCNC(=N)N)C(=O)N[C@H]1Cc2ccccc2CN(CCC(=O)N(Cc2ccccc2)CC(C)C)C1=O"
observation_type = "log10 of Ki"
measured_number = 2.49


Challenge: Reported log10 of Ki, compound Cc1cc(O)cc(C)c1C[C@H](N)C(=O)N[C@H](CCCNC(=N)N)C(=O)N[C@H]1Cc2ccccc2CN(CCC(=O)N(C)Cc2cc(C(F)(F)F)cc(C(F)(F)F)c2)C1=O : ____
Response given: 1.78
